- Tested on: mouse long-term hematopoietic stem cells
- Assay Info: Reproducibility and concentration dependence test: 1-week culture of sorted Hoxb5-tri-mCherry mouse long-term hematopoietic stem cells, flow cytometry
- Type: cell-based
- Condition Label: Table 4; compound 0.3 μM; day 7 of culture; n=2
One threshold, 10%, splits the recorded mCherry-positive rate values: lower ones are 1, equal or higher ones are -1.

// below: answered molecules
Molecule: CC1=CO[C@@H]2O[C@@]3(C)CC[C@H]4[C@H](C)CC[C@@H]1[C@@]24OO3
Classification: -1
--
Molecule: CC(=O)OCCOC1O[C@@H]2O[C@@]3(C)CC[C@H]4[C@H](C)CC[C@@H]([C@H]1C)[C@@]24OO3 (stereo in doubt)
Classification: -1
--
Molecule: CO[C@@H]1O[C@@H]2O[C@@]3(C)CC[C@H]4[C@H](C)CC[C@@H]([C@H]1C)[C@@]24OO3
Classification: -1
--
Molecule: CC(C)O[C@H]1O[C@@H]2O[C@@]3(C)CC[C@H]4[C@H](C)CC[C@@H]([C@H]1C)[C@@]24OO3
Classification: -1
--
Molecule: C[C@H]1[C@H](n2cc(-c3ccccc3)nn2)O[C@@H]2O[C@@]3(C)CC[C@H]4[C@H](C)CC[C@@H]1[C@@]24OO3
Classification: 1
--
Molecule: C[C@H]1[C@H](NS(C)(=O)=O)O[C@@H]2O[C@@]3(C)CC[C@H]4[C@H](C)CC[C@@H]1[C@@]24OO3
Classification: -1

Consider C[C@H]1[C@@H](CN)O[C@@H]2O[C@@]3(C)CC[C@H]4[C@H](C)CC[C@@H]1[C@@]24OO3 . Does its mCherry-positive rate lie strictly below 10%?
1

Consider C[C@H]1[C@H](S(C)(=O)=O)O[C@@H]2O[C@@]3(C)CC[C@H]4[C@H](C)CC[C@@H]1[C@@]24OO3 . Does its mCherry-positive rate lie strictly below 10%?
1

Consider C[C@H]1[C@H](CN)O[C@@H]2O[C@@]3(C)CC[C@H]4[C@H](C)CC[C@@H]1[C@@]24OO3 . Does its mCherry-positive rate lie strictly below 10%?
-1
